# target system: UniProt P05067
# Sequence (P05067 whole entry): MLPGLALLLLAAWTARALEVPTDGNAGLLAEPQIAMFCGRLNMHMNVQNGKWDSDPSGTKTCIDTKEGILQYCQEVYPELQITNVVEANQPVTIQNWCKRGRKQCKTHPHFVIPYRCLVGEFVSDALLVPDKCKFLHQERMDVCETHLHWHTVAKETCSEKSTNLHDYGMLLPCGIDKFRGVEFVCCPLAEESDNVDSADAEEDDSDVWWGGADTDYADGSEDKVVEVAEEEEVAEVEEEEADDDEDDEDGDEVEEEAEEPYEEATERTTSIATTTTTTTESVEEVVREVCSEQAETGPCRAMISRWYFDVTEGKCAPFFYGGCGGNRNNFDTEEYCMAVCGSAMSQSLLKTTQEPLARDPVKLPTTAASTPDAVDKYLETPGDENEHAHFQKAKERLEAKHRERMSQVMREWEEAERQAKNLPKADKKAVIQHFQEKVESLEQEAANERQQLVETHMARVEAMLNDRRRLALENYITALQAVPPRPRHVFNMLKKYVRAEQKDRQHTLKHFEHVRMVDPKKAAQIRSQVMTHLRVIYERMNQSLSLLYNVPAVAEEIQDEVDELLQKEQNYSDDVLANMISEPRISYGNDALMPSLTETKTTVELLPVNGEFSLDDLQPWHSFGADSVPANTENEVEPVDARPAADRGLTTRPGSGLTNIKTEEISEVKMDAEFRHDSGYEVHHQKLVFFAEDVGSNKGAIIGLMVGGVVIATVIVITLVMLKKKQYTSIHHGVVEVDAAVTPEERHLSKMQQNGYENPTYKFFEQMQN
# procedure details: Inhibition of self mediated Amyloid beta (1 to 42) (unknown origin) aggregation measured every 5 mins by ThT fluorescence based assay
measured endpoint: pIC50
Reminder that pIC50 is minus the log10 of a molar concentration.

Asked: For the molecule shown here, Nc1n[nH]c2nc(-c3ccc(Br)cc3)cc(-c3ccc(Br)cc3)c12 , give the reported pIC50.
Given back: 6.34

Asked: For the molecule shown here, COc1ccc(-c2cc(-c3ccc(Br)cc3)nc3[nH]nc(N)c23)cc1OC , give the reported pIC50.
Given back: 6.11

----------
# Test system: human AChE
# procedure details: Safety index, ratio of IC50 for cytotoxicity against human WI-38 cells to IC50 for human AChE
# Assay type: toxicity, cell-based
# test conditions: read-out: Ratio IC50
measured endpoint: selectivity ratio
Form: value (number only, do not type unit).

Asked: For the molecule shown here, Nc1n[nH]c2nc(-c3ccc(Br)cc3)cc(-c3ccc(Br)cc3)c12 , give the reported selectivity ratio.
Given back: 343

Asked: For the molecule shown here, COc1ccc(-c2cc(-c3ccc(Br)cc3)nc3[nH]nc(N)c23)cc1OC , give the reported selectivity ratio.
Given back: 528

----------
Provide the reported viability at 72 h, 3.125 µM of each item.
# procedure details: Cytotoxicity against human WI-38 cells assessed as cell viability upto 3.125 uM incubated for 72 hrs by MTT assay relative to control
# Assay type: toxicity, cell-based
# test conditions: read-out: Activity
Number only, in %; omit the unit.

Asked: For the compound shown here, Nc1n[nH]c2nc(-c3ccc(Br)cc3)cc(-c3ccc(Br)cc3)c12 , give the reported viability at 72 h, 3.125 µM.
Given back: 100

Asked: For the compound shown here, COc1ccc(-c2cc(-c3ccc(Br)cc3)nc3[nH]nc(N)c23)cc1OC , give the reported viability at 72 h, 3.125 µM.
Given back: 100

----------
Record set of pIC50 for target or system Acetylcholinesterase (Homo sapiens).
Reminder that pIC50 is minus the log10 of a molar concentration.

Asked: For the molecule shown here, COc1ccc(-c2cc(-c3ccc(Br)cc3)c3c(N)n[nH]c3n2)cc1 , give the reported pIC50.
Given back: 5.43

Asked: For the molecule shown here, COc1ccc(-c2cc(-c3ccc(OC)cc3)c3c(N)n[nH]c3n2)cc1 , give the reported pIC50.
Given back: 6.59

Asked: For the molecule shown here, Nc1n[nH]c2nc(-c3ccccc3)cc(-c3ccc(Br)cc3)c12 , give the reported pIC50.
Given back: 5.65

Asked: For the molecule shown here, COc1ccc(-c2cc(-c3ccccc3)nc3[nH]nc(N)c23)cc1 , give the reported pIC50.
Given back: 4.65

Asked: For the molecule shown here, COc1cc(-c2cc(-c3ccccc3)nc3[nH]nc(N)c23)cc(OC)c1OC , give the reported pIC50.
Given back: 5.72

Asked: For the molecule shown here, COc1ccc(-c2cc(-c3ccc(Br)cc3)nc3[nH]nc(N)c23)cc1OC , give the reported pIC50.
Given back: 6.80

Asked: For the molecule shown here, COc1ccc(-c2cc(-c3ccc(Br)cc3)nc3[nH]nc(N)c23)cc1 , give the reported pIC50.
Given back: 6.46

Asked: For the molecule shown here, Nc1n[nH]c2nc(-c3ccccc3)cc(-c3ccccc3)c12 , give the reported pIC50.
Given back: 5.28

Asked: For the molecule shown here, COc1ccc(-c2cc(-c3cc(OC)c(OC)c(OC)c3)c3c(N)n[nH]c3n2)cc1 , give the reported pIC50.
Given back: 5.22

Asked: For the molecule shown here, COc1ccc(-c2cc(-c3ccc(OC)c(OC)c3)c3c(N)n[nH]c3n2)cc1 , give the reported pIC50.
Given back: 6.09
